assay: soluble on expression in E. coli; label from the status in PepcDB or PDB records
QUANTITY: soluble on expression in E. coli

* MVSSDVPKTQRALIFESYGGPLEIKQLPIPQPNEDELLVKMEYSGICHSDVHTWLGDFHYVSKCPMIGGHEGAGSVISVGSKVKNWQIGDKVGIKLVQGNCLNCEYCQTGHEPLCPHVWNIGVQKYGTFQEYATIRDVDAIKIPKSMNMAAAAPVLCGGVTAYKALKESEVKSGQIVAVTGAGGGLGSFAIQYARAMGMRVVAEDIVAHIREITDGGAHGVVNFAAAKVPMEKALEYVRKRGTVVFVGLAKDSKILVDTIPLIFNAVKIKGSIVGSRLDVNEAMDFVARGAVNVPLELVKLEDVAEVYTKMHDGKINSRVVVDFSL | not soluble
* MGSDKIHHHHHHMFIDKQTVERHFSKSAHLYDGVNHVQRKMAHRLVQLLDEKRRDAKDEPRAILDIGCGTGWLTRECLKSFPQATIDAVDLSKQMLEVAEKNVSSHPNVQFIQGDIEKMVREKPSAKTYDVIVANAVFQWLDKPTETVAQLRSWLKPNGLLLFSTFGPDTFYELHDSFQLAAKQLGIIDERRGLDYLSKTEWKRTLDGLFAELTIHEEKAIESYATVEQFLHTVKKMGATYSQSSRPLSKRYYQLMKEIYEQRYRTEDSIPATYDCLYVLCQA | not soluble

====

test: soluble on expression in E. coli; label from the status in PepcDB or PDB records
QUANTITY: soluble on expression in E. coli

* MKTTGAGQLGTQLGKIKTSLRQQIHTGVVSQGQKLPSERELSELFSTTRITIKDALVSLETEGLIYREERRGWYVSPERICYNPLSRSHFHQMIREQHRIAATQLISVRSEMAAGDYAKALDIEQMTPIHIIERLRCIDGRAVLFVENVLKASLFDGILAENLTMSLTGIYREKYGYETMRSRFDVIPTSAPAHVAKALNLAEGQPVLKICRVNYKQDGELMDCELEYWRPDAVMIRIDSVG | not soluble
* MGSDKIHHHHHHMSLLDKLRELGISENLIKEIEKFRSQYPVDKEYESRIPVPTQFYYGSDVWEQAITAVLCGENLLLVGEKATGKNLFAENLAGVFNRPRWDVSFHVNMDAASLIGTDTFSAGEVTFRPGPVYTAAKTGGFAVLDEINMAKSEAMAVLHATLDFRRTIDVPGYDRLSLHPATRFIATMNYGYAGTKELNEALVSRFAVIRMPMISKESLVKLIKEHYPTIREAGANELAEVFLELHTKCKNGEISSKALDLRGLIGSIGMMEKGLNIYAALDMGITNKSFDEYEQTLIRDTIRARISRKMSREQLFC | not soluble

====

experiment: soluble on expression in E. coli; label from the status in PepcDB or PDB records
QUANTITY: soluble on expression in E. coli

The examples below pair each entry with its known result.
- MGSDKIHHHHHHMIPEKRIIRRIQSGGCAIHCQDCSISQLCIPFTLNEHELDQLDNIIERKKPIQKGQTLFKAGDELKSLYAIRSGTIKSYTITEQGDEQITGFHLAGDLVGFDAIGSGHHPSFAQALETSMVCEIPFETLDDLSGKMPNLRQQMMRLMSGEIKGDQDMILLLSKKNAEERLAAFIYNLSRRFAQRGFSPREFRLTMTRGDIGNYLGLTVETISRLLGRFQKSGMLAVKGKYITIENNDALAQLAGHTRNVA: not soluble
- MGSDKIHHHHHHMSAHEMNHATPRLPAPLFVTGTDTGVGKTVVSLLLMRALFRRGMVPFYAKPMQTGCRDPYDTDSDAAFVYRHVPELAERDPAEAVGWCFRAPKAPLHAARDERNGVETEDLMRRLAILRATHACLVLEGAGGLMVPFTADALCVDCIRAADARPVLVARDGLGTVNHTLLSVEAMTRRGVTPAGIVFVASGKRPTPSDLVHDNMEAVAMLSGISVSGIVPPILDFHAPPEAALTVADAVIDAALGL: not soluble
- MSRAVRPYLVLATQRSGSTLLVESLRATGCAGEPQEFFQYLPSTGMAPQPREWFAGVDDDTILQLLDPLDPGTPDTATPVAWREHVRTSGRTPNGVWGGKLMWNQTALLQQRAAQLPDRSGDGLRAAIRDVIGNEPVFVHVHRPDVVSQAVSFWRAVQTQVWRGHPDPKRDSQAVYHAGAIAHIIRNLRDQENGWRAWFAEEGIDPIDIAYPVLWRNLTAIVASVLDAIGQDPKLAPAPMLERQANQRSDEWVDRYRAEAPRLGLPT: soluble
- MGSDKIHHHHHHVKVLVTGAAGFIGYSLATRLLARGDEVIGVDIVNDYYDPRLKEARLARLAQQGGGRFTFLRTDFADYPALTAALEGAHFDRIVHLGAQAGVRYSIENPHAYVQSNLVGHVNLLEVARHRGVEHMVYASSSSVYGGNTKLPFSVDDRVDHPLSLYAATKKADELMSETYAHLYRLPLTGLRFFTVYGPWGRPDMMMWLFTRAILAGEPIQVFNHGDMYRDFTYVDDIVSGVVACLDNPPLDDGAPKAGGSLKPHRLYNIGNHKSEHLMKVIAILEAELGRKAEMRMLPMQPGDVRQSFADIDAISGDLGYRPTTGIETGVPNFVRWYKDYHGL: not soluble
- MKYQVKQVAEISGVSIRTLHHYDNIELLNPSALTDAGYRLYSDADLERLQQILFFKEIGFRLDEIKEMLDHPNFDRKAALQSQKEILMKKKQRMDEMIQTIDRTLLSVD: soluble

API: the following record is the query input.
Prompt line: Any idea what soluble on expression in E. coli was measured for MLPSSIEDYALIGDCETAALVGRDGSIDWLCWPSFDSEACFAALLGNEDNGRWQIAPADEVVRCSRRYRGDSLILETTFETATGSITLIDFMPPRGSASDVVRLVRGDRGRVKVAMQLVIRFGYGVALEHHHHHH ?
Response line: not soluble

Each recorded value in this set is attributed to the DeepSol protein solubility set.
